tgt: KIT(L576P) (Homo sapiens, UniProt P10721, L576P)
Construct: purchased Eurofins DiscoverX KINOMEscan (scanTK)
assay text: KINOMEscan ScanTK
Type: binding
applied conditions: @1000nM, read-out: %Control
Threshold check on remaining binding at 1 µM: strictly below 40% is YES; on or above 40% is NO.

Report whether reported remaining binding at 1 µM is lower than 40% (strictly) for Cc1cnc(S(C)(=O)=O)nc1N1CCCC(n2nc(-c3ccc(Oc4ccccc4)cc3)c3c(N)ncnc32)C1 (centres unmarked) [Compound 8a]
NO

Report whether reported remaining binding at 1 µM is lower than 40% (strictly) for CNC(=O)c1cnc(S(C)(=O)=O)nc1N1CCCC(n2nc(-c3ccc(Oc4ccccc4)cc3)c3c(N)ncnc32)C1 (centres unmarked) [Compound 8d]
NO

Report whether reported remaining binding at 1 µM is lower than 40% (strictly) for CCOC(=O)c1cnc(S(C)(=O)=O)nc1N1CCC[C@@H](n2nc(-c3ccc(Oc4ccccc4)cc3)c3c(N)ncnc32)C1 [Compound 8c]
NO

Report whether reported remaining binding at 1 µM is lower than 40% (strictly) for COC(=O)c1cnc(S(C)(=O)=O)nc1N1CCCC(n2nc(-c3ccc(Oc4ccccc4)cc3)c3c(N)ncnc32)C1 (centres unmarked) [Compound 8b]
NO

Report whether reported remaining binding at 1 µM is lower than 40% (strictly) for C=CC(=O)N1CCC[C@@H](n2nc(-c3ccc(Oc4ccccc4)cc3)c3c(N)ncnc32)C1 [Compound 1g, Ibrutinib, reference compound]
YES

###

tgt: ROS1 (Homo sapiens)
Construct: purchased Eurofins DiscoverX KINOMEscan (scanTK)
Sequence (P08922 28-2347): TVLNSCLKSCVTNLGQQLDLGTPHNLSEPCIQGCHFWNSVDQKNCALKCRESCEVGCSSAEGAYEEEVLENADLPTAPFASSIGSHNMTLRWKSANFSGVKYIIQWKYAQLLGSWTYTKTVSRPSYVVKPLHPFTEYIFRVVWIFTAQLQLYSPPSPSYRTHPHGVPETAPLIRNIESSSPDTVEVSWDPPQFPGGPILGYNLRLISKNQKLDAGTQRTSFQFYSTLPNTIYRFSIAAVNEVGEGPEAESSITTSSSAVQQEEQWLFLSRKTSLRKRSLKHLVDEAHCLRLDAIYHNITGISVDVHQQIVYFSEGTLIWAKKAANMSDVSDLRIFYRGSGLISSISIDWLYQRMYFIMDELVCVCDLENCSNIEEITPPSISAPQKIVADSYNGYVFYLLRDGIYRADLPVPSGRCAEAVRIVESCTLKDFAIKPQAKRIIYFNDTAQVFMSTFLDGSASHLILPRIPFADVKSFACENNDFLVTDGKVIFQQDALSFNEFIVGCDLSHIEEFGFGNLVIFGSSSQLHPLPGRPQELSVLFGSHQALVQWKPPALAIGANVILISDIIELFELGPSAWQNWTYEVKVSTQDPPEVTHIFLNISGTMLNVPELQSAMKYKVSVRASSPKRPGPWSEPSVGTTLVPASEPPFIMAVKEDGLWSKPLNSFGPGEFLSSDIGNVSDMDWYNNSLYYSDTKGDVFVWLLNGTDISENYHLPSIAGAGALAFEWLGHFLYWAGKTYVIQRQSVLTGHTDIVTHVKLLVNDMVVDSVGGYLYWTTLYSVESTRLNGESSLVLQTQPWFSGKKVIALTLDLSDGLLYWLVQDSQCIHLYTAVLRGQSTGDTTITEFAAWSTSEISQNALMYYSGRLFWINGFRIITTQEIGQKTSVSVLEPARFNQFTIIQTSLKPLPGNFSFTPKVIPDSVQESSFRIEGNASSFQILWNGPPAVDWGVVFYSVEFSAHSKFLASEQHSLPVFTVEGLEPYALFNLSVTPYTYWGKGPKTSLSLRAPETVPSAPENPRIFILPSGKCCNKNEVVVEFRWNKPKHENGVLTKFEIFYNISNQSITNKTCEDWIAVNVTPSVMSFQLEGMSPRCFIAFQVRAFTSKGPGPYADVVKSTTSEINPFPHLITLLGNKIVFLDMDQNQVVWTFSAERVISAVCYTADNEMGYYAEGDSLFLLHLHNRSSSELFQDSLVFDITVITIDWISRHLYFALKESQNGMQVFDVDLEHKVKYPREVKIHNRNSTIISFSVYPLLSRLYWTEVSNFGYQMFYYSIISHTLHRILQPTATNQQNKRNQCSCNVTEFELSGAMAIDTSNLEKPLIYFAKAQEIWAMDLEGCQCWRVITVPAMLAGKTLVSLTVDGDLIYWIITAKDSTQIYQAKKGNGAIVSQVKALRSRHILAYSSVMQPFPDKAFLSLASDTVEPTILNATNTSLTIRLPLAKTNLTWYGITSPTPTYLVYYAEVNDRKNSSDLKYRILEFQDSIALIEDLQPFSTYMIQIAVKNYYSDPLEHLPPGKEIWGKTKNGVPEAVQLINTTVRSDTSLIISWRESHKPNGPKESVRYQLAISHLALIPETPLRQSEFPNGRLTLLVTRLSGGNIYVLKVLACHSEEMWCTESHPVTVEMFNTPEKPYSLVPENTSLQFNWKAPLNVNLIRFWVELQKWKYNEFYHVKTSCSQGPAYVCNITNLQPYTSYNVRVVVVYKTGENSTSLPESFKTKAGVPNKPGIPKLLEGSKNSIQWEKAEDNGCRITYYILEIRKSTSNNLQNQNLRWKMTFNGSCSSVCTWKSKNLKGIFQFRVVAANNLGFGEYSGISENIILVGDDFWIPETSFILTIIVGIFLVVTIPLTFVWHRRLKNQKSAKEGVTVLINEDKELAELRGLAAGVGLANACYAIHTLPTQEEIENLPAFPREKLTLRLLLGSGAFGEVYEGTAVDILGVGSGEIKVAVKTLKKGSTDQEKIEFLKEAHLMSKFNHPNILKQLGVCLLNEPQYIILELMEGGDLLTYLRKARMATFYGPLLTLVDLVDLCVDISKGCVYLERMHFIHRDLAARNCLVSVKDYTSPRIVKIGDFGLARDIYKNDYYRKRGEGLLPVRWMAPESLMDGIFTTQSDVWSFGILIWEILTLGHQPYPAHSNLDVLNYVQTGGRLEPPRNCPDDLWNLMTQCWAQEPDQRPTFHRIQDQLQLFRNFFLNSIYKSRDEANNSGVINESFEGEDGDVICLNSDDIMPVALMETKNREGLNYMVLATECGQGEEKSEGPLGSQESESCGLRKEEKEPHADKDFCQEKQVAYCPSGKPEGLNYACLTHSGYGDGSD
assay text: KINOMEscan ScanTK
Type: binding
applied conditions: @1000nM, read-out: % difference (compound - Ib %Control)
Consider the following molecules; for each one, report its %Control difference versus reference Ib at 1 µM.
Supply the numeric figure in %, leaving out any unit text.

I would be grateful if you could share the reported %Control difference versus reference Ib at 1 µM for Cc1cnc(S(C)(=O)=O)nc1N1CCCC(n2nc(-c3ccc(Oc4ccccc4)cc3)c3c(N)ncnc32)C1 (stereo not shown) .
-4

I would be grateful if you could share the reported %Control difference versus reference Ib at 1 µM for COC(=O)c1cnc(S(C)(=O)=O)nc1N1CCCC(n2nc(-c3ccc(Oc4ccccc4)cc3)c3c(N)ncnc32)C1 (stereo not shown) .
-11

I would be grateful if you could share the reported %Control difference versus reference Ib at 1 µM for CCOC(=O)c1cnc(S(C)(=O)=O)nc1N1CCC[C@@H](n2nc(-c3ccc(Oc4ccccc4)cc3)c3c(N)ncnc32)C1 .
3

I would be grateful if you could share the reported %Control difference versus reference Ib at 1 µM for CNC(=O)c1cnc(S(C)(=O)=O)nc1N1CCCC(n2nc(-c3ccc(Oc4ccccc4)cc3)c3c(N)ncnc32)C1 (stereo not shown) .
3

###

tgt: ALK (Homo sapiens, UniProt Q9UM73)
Construct: purchased Eurofins DiscoverX KINOMEscan (scanTK)
Sequence (Q9UM73 19-1620): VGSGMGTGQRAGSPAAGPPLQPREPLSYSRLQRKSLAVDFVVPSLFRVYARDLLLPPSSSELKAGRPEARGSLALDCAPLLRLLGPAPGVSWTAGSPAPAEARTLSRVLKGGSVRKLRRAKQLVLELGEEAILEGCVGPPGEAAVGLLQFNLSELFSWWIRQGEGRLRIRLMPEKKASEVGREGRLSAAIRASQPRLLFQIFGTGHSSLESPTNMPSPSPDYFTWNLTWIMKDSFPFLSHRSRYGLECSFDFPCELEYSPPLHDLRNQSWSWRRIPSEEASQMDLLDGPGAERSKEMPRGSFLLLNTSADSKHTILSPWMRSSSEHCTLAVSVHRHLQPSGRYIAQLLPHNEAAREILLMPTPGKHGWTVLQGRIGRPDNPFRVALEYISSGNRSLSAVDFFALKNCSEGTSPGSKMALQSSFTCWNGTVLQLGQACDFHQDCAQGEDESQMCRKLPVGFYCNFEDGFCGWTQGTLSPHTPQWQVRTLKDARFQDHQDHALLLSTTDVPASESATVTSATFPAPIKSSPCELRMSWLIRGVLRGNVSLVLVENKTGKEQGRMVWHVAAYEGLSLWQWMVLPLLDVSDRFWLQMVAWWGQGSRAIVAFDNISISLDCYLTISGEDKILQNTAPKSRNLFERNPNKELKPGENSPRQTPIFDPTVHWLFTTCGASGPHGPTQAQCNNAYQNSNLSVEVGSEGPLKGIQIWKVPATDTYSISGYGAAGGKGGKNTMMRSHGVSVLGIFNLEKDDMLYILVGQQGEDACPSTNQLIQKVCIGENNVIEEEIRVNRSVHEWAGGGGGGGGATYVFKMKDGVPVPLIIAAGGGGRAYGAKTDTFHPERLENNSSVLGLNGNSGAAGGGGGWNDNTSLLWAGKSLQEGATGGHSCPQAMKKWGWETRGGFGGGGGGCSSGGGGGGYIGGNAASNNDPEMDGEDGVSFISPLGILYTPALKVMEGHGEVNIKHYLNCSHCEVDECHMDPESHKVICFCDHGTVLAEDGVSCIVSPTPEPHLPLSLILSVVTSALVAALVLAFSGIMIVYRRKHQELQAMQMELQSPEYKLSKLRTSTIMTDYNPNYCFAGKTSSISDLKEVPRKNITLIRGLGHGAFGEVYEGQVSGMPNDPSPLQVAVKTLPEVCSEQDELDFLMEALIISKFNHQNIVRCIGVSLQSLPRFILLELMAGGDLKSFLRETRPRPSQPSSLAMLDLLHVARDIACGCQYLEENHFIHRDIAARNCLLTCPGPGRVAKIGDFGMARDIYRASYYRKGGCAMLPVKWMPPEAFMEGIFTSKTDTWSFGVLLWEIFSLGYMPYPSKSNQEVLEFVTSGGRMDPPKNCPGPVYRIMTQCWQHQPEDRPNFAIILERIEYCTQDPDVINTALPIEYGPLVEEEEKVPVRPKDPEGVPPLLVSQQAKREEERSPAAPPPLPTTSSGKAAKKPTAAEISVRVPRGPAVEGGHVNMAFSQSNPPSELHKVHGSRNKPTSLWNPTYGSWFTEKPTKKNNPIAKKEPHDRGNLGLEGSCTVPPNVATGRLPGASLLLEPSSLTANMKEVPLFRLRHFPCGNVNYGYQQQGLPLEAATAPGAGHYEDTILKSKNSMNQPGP
assay text: KINOMEscan ScanTK
Format: binding
applied conditions: @1000nM
readout label: difference in %Control versus compound Ib at 1 µM (%)
Supply the numeric figure in %, leaving out any unit text.

I would be grateful if you could share the reported difference in %Control versus compound Ib at 1 µM for COC(=O)c1cnc(S(C)(=O)=O)nc1N1CCCC(n2nc(-c3ccc(Oc4ccccc4)cc3)c3c(N)ncnc32)C1 (stereo not shown) .
6

I would be grateful if you could share the reported difference in %Control versus compound Ib at 1 µM for CNC(=O)c1cnc(S(C)(=O)=O)nc1N1CCCC(n2nc(-c3ccc(Oc4ccccc4)cc3)c3c(N)ncnc32)C1 (stereo not shown) .
-11

I would be grateful if you could share the reported difference in %Control versus compound Ib at 1 µM for CCOC(=O)c1cnc(S(C)(=O)=O)nc1N1CCC[C@@H](n2nc(-c3ccc(Oc4ccccc4)cc3)c3c(N)ncnc32)C1 .
-25

I would be grateful if you could share the reported difference in %Control versus compound Ib at 1 µM for Cc1cnc(S(C)(=O)=O)nc1N1CCCC(n2nc(-c3ccc(Oc4ccccc4)cc3)c3c(N)ncnc32)C1 (stereo not shown) .
-14

###

tgt: EPHB3 (Homo sapiens, UniProt P54753)
Construct: purchased Eurofins DiscoverX KINOMEscan (scanTK)
assay text: KINOMEscan ScanTK
Type: binding
applied conditions: read-out: %Control @1000nM
readout label: remaining binding at 1 µM (%)
Supply the numeric figure in %, leaving out any unit text.

Param readout= remaining binding at 1 µM; system= EPHB3 (Homo sapiens, UniProt P54753); entry= CNC(=O)c1cnc(S(C)(=O)=O)nc1N1CCCC(n2nc(-c3ccc(Oc4ccccc4)cc3)c3c(N)ncnc32)C1 (centres unmarked) [Compound 8d] ; returns value.
100

Param readout= remaining binding at 1 µM; system= EPHB3 (Homo sapiens, UniProt P54753); entry= CCOC(=O)c1cnc(S(C)(=O)=O)nc1N1CCC[C@@H](n2nc(-c3ccc(Oc4ccccc4)cc3)c3c(N)ncnc32)C1 [Compound 8c] ; returns value.
78

Param readout= remaining binding at 1 µM; system= EPHB3 (Homo sapiens, UniProt P54753); entry= Cc1cnc(S(C)(=O)=O)nc1N1CCCC(n2nc(-c3ccc(Oc4ccccc4)cc3)c3c(N)ncnc32)C1 (centres unmarked) [Compound 8a] ; returns value.
100

Param readout= remaining binding at 1 µM; system= EPHB3 (Homo sapiens, UniProt P54753); entry= COC(=O)c1cnc(S(C)(=O)=O)nc1N1CCCC(n2nc(-c3ccc(Oc4ccccc4)cc3)c3c(N)ncnc32)C1 (centres unmarked) [Compound 8b] ; returns value.
97

Param readout= remaining binding at 1 µM; system= EPHB3 (Homo sapiens, UniProt P54753); entry= C=CC(=O)N1CCC[C@@H](n2nc(-c3ccc(Oc4ccccc4)cc3)c3c(N)ncnc32)C1 [Compound 1g, Ibrutinib, reference compound] ; returns value.
98

###

tgt: PYK2 (Homo sapiens)
Construct: purchased Eurofins DiscoverX KINOMEscan (scanTK)
Sequence (Q14289 whole entry): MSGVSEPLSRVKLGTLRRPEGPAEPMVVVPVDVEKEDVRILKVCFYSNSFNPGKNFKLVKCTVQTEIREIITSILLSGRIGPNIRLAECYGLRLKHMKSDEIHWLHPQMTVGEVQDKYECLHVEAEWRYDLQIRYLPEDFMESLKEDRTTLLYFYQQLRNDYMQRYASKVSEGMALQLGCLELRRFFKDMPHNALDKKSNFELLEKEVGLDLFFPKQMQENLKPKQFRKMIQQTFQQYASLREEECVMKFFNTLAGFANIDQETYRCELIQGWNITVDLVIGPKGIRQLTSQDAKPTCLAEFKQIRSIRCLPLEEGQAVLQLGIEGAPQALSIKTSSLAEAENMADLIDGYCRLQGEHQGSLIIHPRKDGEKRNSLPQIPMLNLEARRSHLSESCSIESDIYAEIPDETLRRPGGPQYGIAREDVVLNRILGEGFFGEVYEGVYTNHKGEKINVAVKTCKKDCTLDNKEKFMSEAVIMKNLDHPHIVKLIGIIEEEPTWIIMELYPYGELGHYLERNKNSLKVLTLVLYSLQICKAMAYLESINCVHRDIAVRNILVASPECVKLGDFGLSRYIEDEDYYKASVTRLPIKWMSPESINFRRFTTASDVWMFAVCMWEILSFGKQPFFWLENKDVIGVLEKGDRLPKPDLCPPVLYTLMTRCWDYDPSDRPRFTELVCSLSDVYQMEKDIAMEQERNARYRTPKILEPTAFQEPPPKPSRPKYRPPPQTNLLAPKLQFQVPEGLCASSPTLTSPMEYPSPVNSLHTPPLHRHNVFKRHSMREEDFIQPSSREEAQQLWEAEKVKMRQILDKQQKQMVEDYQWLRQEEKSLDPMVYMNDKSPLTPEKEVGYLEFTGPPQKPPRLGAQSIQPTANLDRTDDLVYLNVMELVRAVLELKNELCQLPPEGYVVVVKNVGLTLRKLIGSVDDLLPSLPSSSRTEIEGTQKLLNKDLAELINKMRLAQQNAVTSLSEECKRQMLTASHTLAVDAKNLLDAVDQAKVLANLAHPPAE
assay text: KINOMEscan ScanTK
Assay type: binding
applied conditions: @1000nM, read-out: %Control
Consider the following compounds; for each one, report its remaining binding at 1 µM.
Supply the numeric figure in %, leaving out any unit text.

I would be grateful if you could share the reported remaining binding at 1 µM for C=CC(=O)N1CCC[C@@H](n2nc(-c3ccc(Oc4ccccc4)cc3)c3c(N)ncnc32)C1 [Compound 1g, Ibrutinib, reference compound] .
100

I would be grateful if you could share the reported remaining binding at 1 µM for CCOC(=O)c1cnc(S(C)(=O)=O)nc1N1CCC[C@@H](n2nc(-c3ccc(Oc4ccccc4)cc3)c3c(N)ncnc32)C1 .
81

I would be grateful if you could share the reported remaining binding at 1 µM for Cc1cnc(S(C)(=O)=O)nc1N1CCCC(n2nc(-c3ccc(Oc4ccccc4)cc3)c3c(N)ncnc32)C1 (centres unmarked) .
92

I would be grateful if you could share the reported remaining binding at 1 µM for COC(=O)c1cnc(S(C)(=O)=O)nc1N1CCCC(n2nc(-c3ccc(Oc4ccccc4)cc3)c3c(N)ncnc32)C1 (centres unmarked) .
85

I would be grateful if you could share the reported remaining binding at 1 µM for CNC(=O)c1cnc(S(C)(=O)=O)nc1N1CCCC(n2nc(-c3ccc(Oc4ccccc4)cc3)c3c(N)ncnc32)C1 (centres unmarked) .
100

###

tgt: CTK (Homo sapiens, UniProt P42679)
Construct: purchased Eurofins DiscoverX KINOMEscan (scanTK)
assay text: KINOMEscan ScanTK
Format: binding
applied conditions: @1000nM, read-out: %Control
Threshold check on remaining binding at 1 µM: strictly below 80% is label 1; on or above 80% is label 0.

Report whether reported remaining binding at 1 µM is lower than 80% (strictly) for Cc1cnc(S(C)(=O)=O)nc1N1CCCC(n2nc(-c3ccc(Oc4ccccc4)cc3)c3c(N)ncnc32)C1 (centres unmarked) [Compound 8a]
label 1

Report whether reported remaining binding at 1 µM is lower than 80% (strictly) for COC(=O)c1cnc(S(C)(=O)=O)nc1N1CCCC(n2nc(-c3ccc(Oc4ccccc4)cc3)c3c(N)ncnc32)C1 (centres unmarked) [Compound 8b]
label 0

Report whether reported remaining binding at 1 µM is lower than 80% (strictly) for CNC(=O)c1cnc(S(C)(=O)=O)nc1N1CCCC(n2nc(-c3ccc(Oc4ccccc4)cc3)c3c(N)ncnc32)C1 (centres unmarked) [Compound 8d]
label 1

Report whether reported remaining binding at 1 µM is lower than 80% (strictly) for CCOC(=O)c1cnc(S(C)(=O)=O)nc1N1CCC[C@@H](n2nc(-c3ccc(Oc4ccccc4)cc3)c3c(N)ncnc32)C1 [Compound 8c]
label 1

###

tgt: ERBB2 (Homo sapiens)
Construct: purchased Eurofins DiscoverX KINOMEscan (scanTK)
assay text: KINOMEscan ScanTK
Assay type: binding
applied conditions: @1000nM; ERBB2; read-out: %Control
readout label: remaining binding at 1 µM (%)
Supply the numeric figure in %, leaving out any unit text.

I would be grateful if you could share the reported remaining binding at 1 µM for C=CC(=O)N1CCC[C@@H](n2nc(-c3ccc(Oc4ccccc4)cc3)c3c(N)ncnc32)C1 [Compound 1g, Ibrutinib, reference compound] .
0

I would be grateful if you could share the reported remaining binding at 1 µM for Cc1cnc(S(C)(=O)=O)nc1N1CCCC(n2nc(-c3ccc(Oc4ccccc4)cc3)c3c(N)ncnc32)C1 (centres unmarked) .
53

I would be grateful if you could share the reported remaining binding at 1 µM for CNC(=O)c1cnc(S(C)(=O)=O)nc1N1CCCC(n2nc(-c3ccc(Oc4ccccc4)cc3)c3c(N)ncnc32)C1 (centres unmarked) .
5.5

I would be grateful if you could share the reported remaining binding at 1 µM for CCOC(=O)c1cnc(S(C)(=O)=O)nc1N1CCC[C@@H](n2nc(-c3ccc(Oc4ccccc4)cc3)c3c(N)ncnc32)C1 .
48

I would be grateful if you could share the reported remaining binding at 1 µM for COC(=O)c1cnc(S(C)(=O)=O)nc1N1CCCC(n2nc(-c3ccc(Oc4ccccc4)cc3)c3c(N)ncnc32)C1 (centres unmarked) .
41
